Source listed as ChEMBL document CHEMBL1140549.

# Tested On: Glucose-6-phosphate isomerase (Saccharomyces cerevisiae S288c) (UniProt P12709)
# Sequence (P12709 whole entry): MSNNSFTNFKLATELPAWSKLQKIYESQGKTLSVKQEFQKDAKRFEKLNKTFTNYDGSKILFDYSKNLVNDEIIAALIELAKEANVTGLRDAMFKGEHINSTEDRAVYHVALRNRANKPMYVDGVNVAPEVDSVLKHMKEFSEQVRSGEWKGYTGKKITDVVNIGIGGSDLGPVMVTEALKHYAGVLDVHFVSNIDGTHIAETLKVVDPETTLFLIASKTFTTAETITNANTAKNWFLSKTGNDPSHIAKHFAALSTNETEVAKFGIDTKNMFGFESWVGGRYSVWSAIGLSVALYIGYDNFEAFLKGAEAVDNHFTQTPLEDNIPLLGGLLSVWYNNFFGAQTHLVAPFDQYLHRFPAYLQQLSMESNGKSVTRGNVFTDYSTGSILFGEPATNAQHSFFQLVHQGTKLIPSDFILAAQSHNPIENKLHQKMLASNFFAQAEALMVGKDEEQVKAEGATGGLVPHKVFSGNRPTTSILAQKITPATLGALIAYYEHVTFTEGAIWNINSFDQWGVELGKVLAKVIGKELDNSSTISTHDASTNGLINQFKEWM
# Assay Notes: Inhibition of yeast phosphoglucose isomerase upto 20 mM
Calls of active or inactive are those of the source. The rule behind the calls is not given here.
Experimental Endpoint: Activity

> print(dat)
                                     smiles  measurement
1  CCCCN(CCCC)[C@@H](CO)[C@@H](O)[C@H](O)[C@H](O)COP(=O)(O)O     inactive
2  CCN(CC)[C@@H](CO)[C@@H](O)[C@H](O)[C@H](O)COP(=O)(O)O     inactive
3  CCCN(CCC)[C@@H](CO)[C@@H](O)[C@H](O)[C@H](O)COP(=O)(O)O     inactive
4  CCCCN[C@@H](CO)[C@@H](O)[C@H](O)[C@H](O)COP(=O)(O)O     inactive
5  CCCCCCN[C@@H](CO)[C@@H](O)[C@H](O)[C@H](O)COP(=O)(O)O     inactive
6  N[C@@H](CO)[C@@H](O)[C@H](O)[C@H](O)COP(=O)(O)O     inactive
7  CCN[C@@H](CO)[C@@H](O)[C@H](O)[C@H](O)COP(=O)(O)O     inactive

###

# Test system: Saccharomyces cerevisiae
# Assay Notes: Antimicrobial activity against Saccharomyces cerevisiae AD by serial dilution microplate method
# Assay type: functional
Experimental Endpoint: MIC (µg/mL)

> print(dat)
                                     smiles                 tested.on  measurement
1  CCCCN[C@@H](CO)[C@@H](O)[C@H](O)[C@H](O)COP(=O)(O)O  Saccharomyces cerevisiae         1250
2  CCCN(CCC)[C@@H](CO)[C@@H](O)[C@H](O)[C@H](O)COP(=O)(O)O  Saccharomyces cerevisiae           80
3  CCCCN(CCCC)[C@@H](CO)[C@@H](O)[C@H](O)[C@H](O)COP(=O)(O)O  Saccharomyces cerevisiae         1250
4        OC(Cn1cncn1)(Cn1cncn1)c1ccc(F)cc1F  Saccharomyces cerevisiae            4
5  CCN[C@@H](CO)[C@@H](O)[C@H](O)[C@H](O)COP(=O)(O)O  Saccharomyces cerevisiae         2500
6  CCN(CC)[C@@H](CO)[C@@H](O)[C@H](O)[C@H](O)COP(=O)(O)O  Saccharomyces cerevisiae          310
7  CCCCCCN[C@@H](CO)[C@@H](O)[C@H](O)[C@H](O)COP(=O)(O)O  Saccharomyces cerevisiae          310
8  N[C@@H](CO)[C@@H](O)[C@H](O)[C@H](O)COP(=O)(O)O  Saccharomyces cerevisiae         5000

###

This section presents compounds with their documented MIC values.
# Tested on: Candida tropicalis
# Assay Notes: Antifungal activity against Candida tropicalis by serial dilution microplate method
# Assay type: functional
Experimental Endpoint: MIC (µg/mL)

> print(dat)
                                   compound  measurement
1  N[C@@H](CO)[C@@H](O)[C@H](O)[C@H](O)COP(=O)(O)O        10000
2  CCN(CC)[C@@H](CO)[C@@H](O)[C@H](O)[C@H](O)COP(=O)(O)O          625
3  CCCCCCN[C@@H](CO)[C@@H](O)[C@H](O)[C@H](O)COP(=O)(O)O          310
4  CCCN(CCC)[C@@H](CO)[C@@H](O)[C@H](O)[C@H](O)COP(=O)(O)O          625
5  OC(Cn1cncn1)(Cn1cncn1)c1ccc(F)cc1F [FLUCONAZOLE]           16
6  CCCCN[C@@H](CO)[C@@H](O)[C@H](O)[C@H](O)COP(=O)(O)O         1250
7  CCN[C@@H](CO)[C@@H](O)[C@H](O)[C@H](O)COP(=O)(O)O         2500
8  CCCCN(CCCC)[C@@H](CO)[C@@H](O)[C@H](O)[C@H](O)COP(=O)(O)O         2500

###

# System: Candida albicans
# Assay Notes: Drug uptake in Candida albicans assessed as uptake rate per mg dry weight
# Format: ADME, organism-based
# Experimental Context: in vivo
Experimental Endpoint: Drug uptake (nmol/mg/min)

> print(dat)
                                     smiles  measurement
1  CCCCN(CCCC)[C@@H](CO)[C@@H](O)[C@H](O)[C@H](O)COP(=O)(O)O            5
2  CCCN(CCC)[C@@H](CO)[C@@H](O)[C@H](O)[C@H](O)COP(=O)(O)O          4.7
3  CCCCN[C@@H](CO)[C@@H](O)[C@H](O)[C@H](O)COP(=O)(O)O          3.4
4  CCCCCCN[C@@H](CO)[C@@H](O)[C@H](O)[C@H](O)COP(=O)(O)O          4.8
5  N[C@@H](CO)[C@@H](O)[C@H](O)[C@H](O)COP(=O)(O)O          1.1
6  CCN[C@@H](CO)[C@@H](O)[C@H](O)[C@H](O)COP(=O)(O)O          2.9
7  CCN(CC)[C@@H](CO)[C@@H](O)[C@H](O)[C@H](O)COP(=O)(O)O          3.9
